- CONDITION: in ethanol, 278.15 K
READOUT_TYPE: solubility (mole fraction)

CCC[C@@H]1CC(=O)N([C@@H](CC)C(N)=O)C1 0.189

---

- CONDITION: in diisopropyl ether, 283.15 K
READOUT_TYPE: solubility (mole fraction)

CCC[C@@H]1CC(=O)N([C@@H](CC)C(N)=O)C1 0.00108

---

- CONDITION: in isopropyl acetate, 293.15 K
READOUT_TYPE: solubility (mole fraction)

CCC[C@@H]1CC(=O)N([C@@H](CC)C(N)=O)C1 0.0768

---

- CONDITION: in ethyl formate, 283.15 K
READOUT_TYPE: solubility (mole fraction)

CCC[C@@H]1CC(=O)N([C@@H](CC)C(N)=O)C1 0.113
